B1: tRNA (parent)
chain: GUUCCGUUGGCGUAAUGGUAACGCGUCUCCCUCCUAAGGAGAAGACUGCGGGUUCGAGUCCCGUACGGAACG

Variants of: B1
Measurement Protocol: yeast fitness relative to wild type (ratio to wild type); higher = fitter; tRNA-Arg(CCU), competitive growth, 37 C, YPD
Fewer inactive variants are shown than the library holds.
Outcome label depends on yeast fitness relative to 0.6: at/above gives Yes, below gives No.

See these solved cases before continuing.
[[record]]
mutant_id = "G6C A37G A40U A45C C60G"
assigned_class = "No"

[[record]]
mutant_id = "C24A C29G U32G G38A U47A"
assigned_class = "No"

[[record]]
mutant_id = "C22G C49U C61A"
assigned_class = "Yes"

[[record]]
mutant_id = "G12U G23A A36G G39A"
assigned_class = "No"

[[record]]
mutant_id = "G12C A37G G38A A45U"
assigned_class = "No"


**Query** Quick check: does C5U U7A G10A G48C have yeast fitness greater than or equal to 0.6?
**Result** No

**Query** Quick check: does A14G U35C A57G have yeast fitness greater than or equal to 0.6?
**Result** No

**Query** Quick check: does A21G A42G A65C G67A have yeast fitness greater than or equal to 0.6?
**Result** No

**Query** Quick check: does A40U A42G have yeast fitness greater than or equal to 0.6?
**Result** Yes

**Query** Quick check: does G50C U59A have yeast fitness greater than or equal to 0.6?
**Result** Yes

Reference source: the RNAGym collection of RNA variant scans (doi:10.1126/science.aae0568)
